System: KYSE-270;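 further: cell growth inhibition measured with a viability assay in the human KYSE-270 line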
Assay: cells
Assay type: functional, cell-based, Homo sapiens
Settings: Homo sapiens, KYSE-270
Description: SANGER: Inhibition of human KYSE-270 cell growth in a cell viability assay.
pIC50: −log10 of the molar value.
Assay endpoint: pIC50

Cn1cc(C2=C(c3ccc(Cl)cc3Cl)C(=O)NC2=O)c2ccccc21 [SB-216763]: < 5.00
CC(=O)O[C@@H]1[C@@H](OC(C)=O)[C@@H](O)[C@H](Oc2c(-c3ccc(O)cc3)oc3cc(O)cc(O)c3c2=O)O[C@H]1C: < 5.00

Return reported pIC50 values for all items listed beneath this line.
1. O=C1N=C(NCc2cccs2)S/C1=C\c1ccc2ncccc2c1
2. O=C(c1cc(Cc2n[nH]c(=O)c3ccccc23)ccc1F)N1CCN(C(=O)C2CC2)CC1 [OLAPARIB]

["< 5.30", "< 5.30"]
